Reference source for all entries: patent EP4567031A1

Tested on: human Pan T cells
PROTOCOL_TEXT: Human Pan T cell IL-2 ELISA
Format: cell-based
REPORTED_CONDITIONS: Homo sapiens, T-cell, 48 h, Anti-CD3 and Anti-CD28, supernatant IL-2 ELISA, read-out: IL-2 release, EC50
Protocol: A compound was dissolved in DMSO to 10 mM, and then diluted three-fold with DMSO to 9 dosages in a 96-well plate. […] The assay was conducted in a 96-well plate. […] On the second day of the assay, human Pan T cells were recovered, centrifuged and counted. […] The signal value of light absorption was converted into a multiple. […] The average value of control wells refers to the value measured in wells with DMSO added. EC50 values were calculated by XLFit (version 5.3.1.3) in Excel. […]
QUANTITY_KIND: EC50 (nM)

Field: example entries. Status: answers known.
| COMPOUND | TARGET_ENTITY | UNITS | EC50 |
| --- | --- | --- | --- |
| CC1(C)c2cc(N3CCOCC3)ccc2Nc2c1cc(-c1cnc3c(C#N)cccn13)c1c2C(=O)NC1 [Example 34] | human Pan T cells | nM | 2.41 |
| Cc1ccn2c(-c3cc4c(c5c3CNC5=O)Nc3ccc(N5CCOC(CO)C5)cc3C4(C)C)cnc2c1F (stereo not shown) [Example 46] | human Pan T cells | nM | 7.73 |
| CC1(C)c2cc(N3CCOC(C(C)(C)O)C3)ccc2Nc2c1cc(-c1cnc3cc(Cl)ccn13)c1c2C(=O)NC1 (single isomer, unassigned) [Example 125] | human Pan T cells | nM | 7.23 |

I. Cn1ccn2c(-c3cc4c(c5c3CNC5=O)Nc3ccc(N5CCOCC5)cc3C4(C)C)cnc2c1=O [Example 41]
II. COc1nccn2c(-c3cc4c(c5c3CCNC5=O)Nc3ccc(N5CCOCC5)cc3C4(C)C)cnc12 [Example 280]
III. COc1ccnn2c(-c3cc4c(c5c3CNC5=O)Nc3ccc(N5CCOCC5)cc3C4(C)C)cnc12 [Example 31]
IV. CC1(C)c2cc(N3CCOCC3)cnc2Nc2c1cc(-c1cnn3cccnc13)c1c2C(=O)NC1 [Example 28]
[ask] # rank_down: sort by EC50, max first // rank by listing labels in the order requested
[reply] IV, II, I, III
(IV: 95.9 nM, II: 13 nM, I: 6.09 nM, III: 3.7 nM)

---

System: human Pan T cells
PROTOCOL_TEXT: Human Pan T cell IL-2 ELISA
Format: cell-based
REPORTED_CONDITIONS: Homo sapiens, T-cell, 48 h, Anti-CD3 and Anti-CD28, supernatant IL-2 ELISA, read-out: IL-2 release, EC50
pEC50: −log10 of the molar value.
QUANTITY_KIND: pEC50

| MOLECULE | MEASURED_VALUE |
| --- | --- |
| CC1(C)c2cc(N3CCOC(C4(O)CC4)C3)ccc2Nc2c1cc(-c1cnc3cc(C(F)F)ccn13)c1c2C(=O)NC1 (stereo not shown) | 8.18 |
| COC1CCCn2c(-c3cc4c(c5c3CNC5=O)Nc3ccc(N5CCOCC5)cc3C4(C)C)cnc21 (stereo not shown) [Example 69] | 7.94 |
| CC1(C)c2cc(N3CCOCC3)ccc2Nc2c1cc(-c1cnc3n1CCCC3OC1CC1)c1c2C(=O)NC1 (single isomer, unassigned) | 7.82 |

1. CC1(C)c2cc(N3CCOCC3)ccc2Nc2c1cc(-c1nnc3c(C#N)cccn13)c1c2C(=O)NC1
2. CC1(C)c2cc(N3CCOCC3)ccc2Nc2c1cc(-c1cnc3cc(C#N)ccn13)c1c2C(=O)NC1
[ask] Hi there, can you help? I need to know whether 1 or 2 has lower measured pEC50. Mark your answer with the label of the selected entry.
[reply] 1
(1: 7.77, 2: 8.32)

---

TARGET_ENTITY: HPK1 (Homo sapiens, UniProt Q92918)
Sequence (Q92918 whole entry, species assumed): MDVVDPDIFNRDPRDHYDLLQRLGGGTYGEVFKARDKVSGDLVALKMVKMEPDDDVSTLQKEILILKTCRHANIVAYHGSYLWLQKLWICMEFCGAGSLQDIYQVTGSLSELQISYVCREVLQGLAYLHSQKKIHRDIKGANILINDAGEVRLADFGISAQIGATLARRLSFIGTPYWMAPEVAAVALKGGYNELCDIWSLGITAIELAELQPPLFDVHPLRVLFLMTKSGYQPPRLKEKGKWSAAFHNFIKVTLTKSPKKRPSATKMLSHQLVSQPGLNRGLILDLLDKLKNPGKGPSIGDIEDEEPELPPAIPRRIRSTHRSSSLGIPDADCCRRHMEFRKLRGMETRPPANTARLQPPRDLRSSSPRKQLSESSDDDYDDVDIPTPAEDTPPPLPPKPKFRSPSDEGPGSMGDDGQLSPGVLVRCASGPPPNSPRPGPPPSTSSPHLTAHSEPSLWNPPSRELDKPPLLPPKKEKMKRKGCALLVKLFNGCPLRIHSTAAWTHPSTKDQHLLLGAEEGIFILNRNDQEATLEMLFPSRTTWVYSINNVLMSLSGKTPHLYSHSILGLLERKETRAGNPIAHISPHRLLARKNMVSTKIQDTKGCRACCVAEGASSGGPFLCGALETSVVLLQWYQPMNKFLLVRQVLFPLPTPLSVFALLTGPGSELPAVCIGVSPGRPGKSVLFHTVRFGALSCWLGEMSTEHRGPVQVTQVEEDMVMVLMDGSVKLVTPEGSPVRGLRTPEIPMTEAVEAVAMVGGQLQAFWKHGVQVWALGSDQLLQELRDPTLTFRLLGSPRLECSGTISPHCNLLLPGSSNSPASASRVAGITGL
PROTOCOL_TEXT: HPK1 HTRF kinase assay
Type: biochemical
REPORTED_CONDITIONS: 1000 µM ATP; 50 nM HPK1; STK1 substrate; read-out: HPK1, IC50
QUANTITY_KIND: IC50 (nM)

| MOLECULE | MEASURED_VALUE |
| --- | --- |
| CC1(C)c2cc(N3CCOCC3)ccc2Nc2c1cc(-c1cnn3ccccc13)c1c2C(=O)NC1 [Example 37] | 7.98 |
| Cc1ccn2c(-c3cc4c(c5c3CNC5=O)Nc3ccc(N5CCC(O)CC5)cc3C4(C)C)cnc2c1F [Example 40] | 12.3 |
| CC1(C)c2cc(N3CCOC(C(C)(C)O)C3)ccc2Nc2c1cc(-c1cnn3cccnc13)c1c2C(=O)NC1 (centres unmarked) [Example 22] | 11.2 |
| CC1(C)c2cc(N3CCOCC3)ccc2Nc2c1cc(-c1cnn3ccncc13)c1c2C(=O)NC1 [Example 35] | 12.8 |
| CN1CCN(Cc2ccc3c(c2)C(C)(C)c2cc(-c4cnn5cccnc45)c4c(c2N3)C(=O)NC4)CC1 [Example 50] | 8.71 |

P. CC1(C)c2cc(N3CCOCC3)ccc2Nc2c1cc(-c1cnn3c1CCCC3)c1c2C(=O)NC1 [Example 36]
Q. Cc1cc(-c2cc3c(c4c2CNC4=O)Nc2ccc(N4CCOCC4)cc2C3(C)C)cc(=O)[nH]1 [Example 81]
[ask] Hi there, can you help? I need to know whether P or Q has lower measured IC50. Mark your answer with the label of the selected entry.
[reply] Q

---

TARGET_ENTITY: HPK1 (Homo sapiens)
PROTOCOL_TEXT: HPK1 HTRF kinase assay
Type: biochemical
REPORTED_CONDITIONS: 1000 µM ATP; 50 nM HPK1; STK1 substrate; read-out: HPK1, IC50
pIC50: −log10 of the molar value.
QUANTITY_KIND: pIC50

Field: example entries. Status: answers known.
| MOLECULE | pIC50 |
| --- | --- |
| CN1CCn2c(-c3cc4c(c5c3CNC5=O)Nc3ccc(N5CCOCC5)cc3C4(C)C)cnc2C1=O | 8.06 |
| Cc1ccnc2c(-c3cc4c(c5c3CNC5=O)Nc3ccc(N5CCOCC5)cc3C4(C)C)cnn12 | 7.84 |
| COc1ccnc2c(-c3cc4c(c5c3CNC5=O)Nc3ccc(N5CCOCC5)cc3C4(C)C)cnn12 | 7.96 |
| CC1(C)c2cc(N3CCOCC3)ccc2Nc2c1cc(-c1cnc3cccnn13)c1c2C(=O)NC1 | 8.16 |
| CC1(C)c2cc(N3CCOCC3)c(C(F)F)cc2Nc2c1cc(-c1cnn3cccnc13)c1c2C(=O)NC1 | 8.10 |
| Cc1ncc(-c2cc3c(c4c2CNC4=O)Nc2ccc(N4CCOCC4)cc2C3(C)C)n1C | 8.10 |
| CC1(C)c2cc(N3CCOCC3)ccc2Nc2c1cc(-c1cnn3c(C#N)cccc13)c1c2C(=O)NC1 | 8.20 |
| CC1(C)c2cc(N3CCOCC3)ccc2Nc2c1cc(-c1cnc3c(C#N)cccn13)c1c2C(=O)NC1 | 7.94 |
| Cc1ccn2c(-c3cc4c(c5c3CNC5=O)Nc3ccc(N5CCOC(CO)C5)cc3C4(C)C)cnc2c1F (stereo not drawn) | 7.99 |
| Cc1ccn2c(-c3cc4c(c5c3CNC5=O)Nc3ccc(N5CCOCC5)cc3C4(C)C)cnc2c1F | 8.13 |

I. CC1(C)c2cc(C3COCCN3)ccc2Nc2c1cc(-c1cnn3cccnc13)c1c2C(=O)NC1 (stereo not drawn)
II. CC1(C)c2cc(N3CCOCC3)ncc2Nc2c1cc(-c1cnn3cccnc13)c1c2C(=O)NC1
[ask] Compare I and II by numeric pIC50 and name the larger one. Mark your answer with the label of the selected entry.
[reply] I

---

Test system: human Pan T cells
PROTOCOL_TEXT: Human Pan T cell IL-2 ELISA
Assay type: cell-based
REPORTED_CONDITIONS: Homo sapiens, T-cell, 48 h, Anti-CD3 and Anti-CD28, supernatant IL-2 ELISA, read-out: IL-2 release, EC50
QUANTITY_KIND: EC50 (nM)

Field: example entries. Status: answers known.
| COMPOUND | UNITS | EC50 |
| --- | --- | --- |
| Cc1ccn2c(-c3cc4c(c5c3CNC5=O)Nc3ccc(N5CCOC(C(C)(C)O)C5)cc3C4(C)C)cnc2n1 (single isomer, unassigned) | nM | 6.33 |
| Cn1cnc2c(-c3cc4c(c5c3CNC5=O)Nc3ccc(N5CCOC(C(C)(C)O)C5)cc3C4(C)C)cncc21 (stereo not shown) | nM | 8.52 |
| CC1(C)c2cc(N3CCOCC3)ccc2Nc2c1cc(-c1nnc3cc(C#N)ccn13)c1c2C(=O)NC1 | nM | 4.7 |

I. CN1CCn2c(-c3cc4c(c5c3CNC5=O)Nc3ccc(N5CCOCC5)cc3C4(C)C)cnc2C1
II. CC1(C)c2cc(N3CCOCC3)ccc2Nc2c1cc(-c1cnc3cc(OC4COC4)ccn13)c1c2C(=O)NC1
III. CC1(C)c2cc(N3CCOCC3)c(F)cc2Nc2c1cc(-c1cnn3cccnc13)c1c2C(=O)NC1
IV. COC1CCCn2c(-c3cc4c(c5c3CNC5=O)Nc3ccc(N5CCC(O)CC5)cc3C4(C)C)cnc21 (single isomer, unassigned)
V. COC1CCCn2c(-c3cc4c(c5c3CNC5=O)Nc3cc(C5CCOCC5)ccc3C4(C)C)cnc21 (single isomer, unassigned)
[ask] // smallest EC50 at index 0, largest at the end // rank by listing labels in the order requested
[reply] III, IV, II, I, V

1. Cc1c(-c2cc3c(c4c2CNC4=O)Nc2ccc(N4CCOC(C(C)(C)O)C4)cc2C3(C)C)cnn1C1CC1 (single isomer, unassigned)
2. CC1(C)c2cc(N3CCOC(C(C)(C)O)C3)ccc2Nc2c1cc(-c1cnc3c(Cl)cccn13)c1c2C(=O)NC1 (stereo not shown)
[ask] Compare 1 and 2 by numeric EC50 and name the larger one. Mark your answer with the label of the selected entry.
[reply] 1
(1: 21.8 nM, 2: 5.52 nM)
